// data source = PubChem BioAssay (NCI)

- System: OVCAR-4 ovarian
- Assay text: NCI-60 one-dose screen, 48 h (100 = growth as untreated, 0 = no growth, -100 = all killed)
- Test settings: 10 µM unless noted
Compounds without any hit were thinned out: in the full panel of roughly 83,000, 20% have a hit. Calls of active or inactive are those of the source. How the source made its calls: active means growth percent below 10; inactive means the rest.
Reported growth values follow for various compounds

{"Compound": "COc1ccc(N2CCN(Cc3cc(C(=O)/C=C/c4c[nH]c5ccccc45)ccc3O)CC2)cc1", "Measured on": "OVCAR-4 ovarian", "growth": "93% (inactive)"}
{"Compound": "COc1ccc(-c2cnnn2-c2nonc2-n2cccc2)cc1OC", "Measured on": "OVCAR-4 ovarian", "growth": "90.6% (inactive)"}
{"Compound": "CCOC(=O)c1cn2c3c(cccc3c1=O)C(=O)/C(=C/c1cccc(Cl)c1Cl)C2", "Measured on": "OVCAR-4 ovarian", "growth": "100% (inactive)"}
{"Compound": "COc1ccc(-c2c(N)n[nH]c2-c2cc3c(c(OC)c2OC)OCO3)cc1", "Measured on": "OVCAR-4 ovarian", "growth": "99.1% (inactive)"}
{"Compound": "CCCCC(CC)OC(=O)C(Br)CC (configuration not stated)", "Measured on": "OVCAR-4 ovarian", "growth": "90.6% (inactive)"}
{"Compound": "Cc1cc(N/N=C/c2nc(-c3ccccc3)oc2C)c2cc(Cl)ccc2n1", "Measured on": "OVCAR-4 ovarian", "growth": "-89.6% (active)"}
{"Compound": "CCOC(=O)C1CCNC(=O)C1=O (configuration not stated)", "Measured on": "OVCAR-4 ovarian", "growth": "119% (inactive)"}
{"Compound": "COc1ccc(N=Cc2c(O)ccc3c2oc2cc(Cl)c(O)c(Cl)c23)cc1", "Measured on": "OVCAR-4 ovarian", "growth": "98.3% (inactive)"}
{"Compound": "COc1cc(NC(N)=NCCC(C)(C)Oc2ccc(C(F)(F)F)cc2)ncc1C#N", "Measured on": "OVCAR-4 ovarian", "growth": "12% (inactive)"}
{"Compound": "O=C(Oc1ccccc1[N+](=O)[O-])C1CCCN1C(=O)OCc1ccccc1 (configuration not stated)", "Measured on": "OVCAR-4 ovarian", "growth": "103% (inactive)"}
{"Compound": "CC(O)CN1CCCCC1 (configuration not stated)", "Measured on": "OVCAR-4 ovarian", "growth": "109% (inactive)"}
{"Compound": "COC(=O)[C@]12CC[C@@H](C)[C@H](C)[C@@H]1C1=CC[C@@H]3[C@@]4(C)C(C=O)=C[C@@](C)(COC(=O)c5ccco5)[C@@H]4[C@H](O)C[C@@]3(C)[C@]1(C)CC2", "Measured on": "OVCAR-4 ovarian", "growth": "-0.264% (active)"}
{"Compound": "COc1cc(C2NN=C3c4ccccc4CCC32)cc(OC)c1OC (configuration not stated)", "Measured on": "OVCAR-4 ovarian", "growth": "71.1% (inactive)"}
{"Compound": "CCOC(=O)C1C(=O)C=C(c2ccc(OC)cc2)CC1c1sc(N(C)Cc2ccccc2)nc1Cl (configuration not stated)", "Measured on": "OVCAR-4 ovarian", "growth": "78.2% (inactive)"}
{"Compound": "COc1cc(/C=N\\NC(=O)CN2CCN(c3cc4c(cc3F)c(=O)c(C(=O)N/N=C/c3cc(OC)c(OC)c(OC)c3)cn4C3CC3)CC2)cc(OC)c1OC", "Measured on": "OVCAR-4 ovarian", "growth": "-17.7% (active)"}
{"Compound": "Cc1csc(NC(c2ccc(Br)cc2)c2c(C)nc3ccccn23)n1 (configuration not stated)", "Measured on": "OVCAR-4 ovarian", "growth": "81.5% (inactive)"}
{"Compound": "COc1ccc(Nc2nn3c(C)cc(C)nc3c2C(=O)Nc2ccc(C)cc2)c(OC)c1", "Measured on": "OVCAR-4 ovarian", "growth": "102% (inactive)"}
{"Compound": "Brc1cccc(-c2cc(-c3ccc4c(c3)OCCCO4)[nH]n2)c1", "Measured on": "OVCAR-4 ovarian", "growth": "68.1% [25 µM] (inactive)"}
{"Compound": "CCCCN(CCCC)C(=N)c1ccnc2ccccc12", "Measured on": "OVCAR-4 ovarian", "growth": "94% (inactive)"}
{"Compound": "CC(=O)Nc1ccc(/C=C/C(=O)c2ccccc2)cc1", "Measured on": "OVCAR-4 ovarian", "growth": "106% (inactive)"}
{"Compound": "CCc1ccc(-c2ccc(=O)n(-c3ccc(S(N)(=O)=O)cc3)n2)cc1", "Measured on": "OVCAR-4 ovarian", "growth": "74.5% (inactive)"}
{"Compound": "COc1ccc2c(c1)NC1=C(C(=O)OC1)C2c1cc(OC)c2c(c1)OCO2 (configuration not stated)", "Measured on": "OVCAR-4 ovarian", "growth": "46% (inactive)"}
{"Compound": "COc1ccc(C2C=C(c3ccc(N)cc3)N=C3SC=CN32)cc1OC (configuration not stated)", "Measured on": "OVCAR-4 ovarian", "growth": "102% (inactive)"}
{"Compound": "C=C1CCC2C(C)(CO)C(O)CCC2(C)C1C/C=C1/C(=O)OCC1Oc1ccccc1C (configuration not stated)", "Measured on": "OVCAR-4 ovarian", "growth": "74.8% (inactive)"}
{"Compound": "NC1=NC(SCc2ccccc2CCl)c2ncn(Cc3ccccc3CCl)c2N1 (configuration not stated)", "Measured on": "OVCAR-4 ovarian", "growth": "42.9% (inactive)"}
{"Compound": "C=C[C@@H]1C[C@@H]2Cc3cc(Cl)ccc3N1O2", "Measured on": "OVCAR-4 ovarian", "growth": "102% (inactive)"}
{"Compound": "CCN(CC)c1ccc(/C=C2\\Oc3ccc(O)c(I)c3C2=O)cc1", "Measured on": "OVCAR-4 ovarian", "growth": "81.5% (inactive)"}
{"Compound": "O=S(=O)(NCCNc1nccc(-c2c(-c3ccc(F)cc3)nc3sccn23)n1)c1ccc(F)cc1", "Measured on": "OVCAR-4 ovarian", "growth": "81.4% (inactive)"}
{"Compound": "N#Cc1c(Nc2ccccc2)nc2n(c1=O)-c1ccccc1Sc1ccccc1-2", "Measured on": "OVCAR-4 ovarian", "growth": "58.4% (inactive)"}
{"Compound": "COc1ccc(-c2cn(-c3cccc(C(=O)/C=C/c4cc(OC)c(OC)c(OC)c4)c3)c(=O)[nH]2)cc1OC", "Measured on": "OVCAR-4 ovarian", "growth": "85.7% (inactive)"}
{"Compound": "CO[C@H]1NC(=O)N(S(=O)(=O)c2ccc(Cl)cc2)[C@@H]1OC", "Measured on": "OVCAR-4 ovarian", "growth": "108% (inactive)"}
{"Compound": "C=C1CCC2C3(C)COC(C)(C)OC3CCC2(C)C1C/C=C1/C(=O)OCC1Oc1ccccc1OC (configuration not stated)", "Measured on": "OVCAR-4 ovarian", "growth": "60.7% (inactive)"}
{"Compound": "COc1cc(/C=C/C(=O)c2c(C)nc3ccccc3c2C)ccc1OCCCCOc1cc2c(cc1OC)C(=O)N1CCC[C@H]1C=N2", "Measured on": "OVCAR-4 ovarian", "growth": "-20.1% (active)"}
{"Compound": "COc1ccc(C(=O)N2NC(=O)/C(=C/c3ccc(Br)cc3)N=C2c2ccccc2)cc1", "Measured on": "OVCAR-4 ovarian", "growth": "92.7% (inactive)"}
{"Compound": "CC(=O)Nc1scc[n+]1Cc1ccccc1", "Measured on": "OVCAR-4 ovarian", "growth": "108% (inactive)"}
{"Compound": "Clc1cc2c(nn1)Nc1ccccc1S2", "Measured on": "OVCAR-4 ovarian", "growth": "95.3% (inactive)"}
{"Compound": "COc1cc(-c2nn(-c3cccc(NC(=O)Nc4ccc(Cl)c(Cl)c4)c3)cc2-c2ccncc2)ccc1Cl", "Measured on": "OVCAR-4 ovarian", "growth": "19.8% (inactive)"}
